# tgt: Cav2.3 (Homo sapiens)
# assay-remarks: Human Cav2.3 channel calcium-influx assay
# Type: cell-based
# experimental-parameters: Fluo8 fluorescence, HEK-293 T-Rex/Kir2.1/Cav2.3e cells, without pluronic acid, read-out: Cav2.3 (pIC50) (converted)
measured-endpoint: IC50 (nM)
Express your answer in nM, writing the number without its unit.

compound	tgt	scale-unit	IC50
CCN([C@@H](c1ccc(F)cc1)C(F)(F)F)S(=O)(=O)c1ccc(=O)n(C)c1 [Example 102]	Cav2.3 (Homo sapiens)	nM	6760
CCN([C@H](c1ccc(F)cc1)C(F)(F)F)S(=O)(=O)c1cnc2nsnc2c1 [Example 147]	Cav2.3 (Homo sapiens)	nM	158
CCN([C@H](c1ccc(F)cc1)C(F)(F)F)S(=O)(=O)c1cn2ccnc2cn1 [Example 198]	Cav2.3 (Homo sapiens)	nM	324
CCN([C@H](c1ccc(F)cc1)C(F)(F)F)S(=O)(=O)c1cn2ccccc2n1 [Example 142]	Cav2.3 (Homo sapiens)	nM	1070
CCN([C@H](c1ccc(F)cc1)C(F)(F)F)S(=O)(=O)c1nc2ccccn2n1 [Example 153]	Cav2.3 (Homo sapiens)	nM	1580

Query: // map CN([C@H](c1ccc(OC(F)(F)F)cc1)C(F)(F)F)S(=O)(=O)c1cncc(C#N)c1 [Example 241] to recorded IC50 (system: Cav2.3 (Homo sapiens))
Result: 105

====

Form field: IC50 (one value per entry).
# tgt: Cav2.3 (Homo sapiens, UniProt Q15878)
# Sequence (Q15878 whole entry, looked up): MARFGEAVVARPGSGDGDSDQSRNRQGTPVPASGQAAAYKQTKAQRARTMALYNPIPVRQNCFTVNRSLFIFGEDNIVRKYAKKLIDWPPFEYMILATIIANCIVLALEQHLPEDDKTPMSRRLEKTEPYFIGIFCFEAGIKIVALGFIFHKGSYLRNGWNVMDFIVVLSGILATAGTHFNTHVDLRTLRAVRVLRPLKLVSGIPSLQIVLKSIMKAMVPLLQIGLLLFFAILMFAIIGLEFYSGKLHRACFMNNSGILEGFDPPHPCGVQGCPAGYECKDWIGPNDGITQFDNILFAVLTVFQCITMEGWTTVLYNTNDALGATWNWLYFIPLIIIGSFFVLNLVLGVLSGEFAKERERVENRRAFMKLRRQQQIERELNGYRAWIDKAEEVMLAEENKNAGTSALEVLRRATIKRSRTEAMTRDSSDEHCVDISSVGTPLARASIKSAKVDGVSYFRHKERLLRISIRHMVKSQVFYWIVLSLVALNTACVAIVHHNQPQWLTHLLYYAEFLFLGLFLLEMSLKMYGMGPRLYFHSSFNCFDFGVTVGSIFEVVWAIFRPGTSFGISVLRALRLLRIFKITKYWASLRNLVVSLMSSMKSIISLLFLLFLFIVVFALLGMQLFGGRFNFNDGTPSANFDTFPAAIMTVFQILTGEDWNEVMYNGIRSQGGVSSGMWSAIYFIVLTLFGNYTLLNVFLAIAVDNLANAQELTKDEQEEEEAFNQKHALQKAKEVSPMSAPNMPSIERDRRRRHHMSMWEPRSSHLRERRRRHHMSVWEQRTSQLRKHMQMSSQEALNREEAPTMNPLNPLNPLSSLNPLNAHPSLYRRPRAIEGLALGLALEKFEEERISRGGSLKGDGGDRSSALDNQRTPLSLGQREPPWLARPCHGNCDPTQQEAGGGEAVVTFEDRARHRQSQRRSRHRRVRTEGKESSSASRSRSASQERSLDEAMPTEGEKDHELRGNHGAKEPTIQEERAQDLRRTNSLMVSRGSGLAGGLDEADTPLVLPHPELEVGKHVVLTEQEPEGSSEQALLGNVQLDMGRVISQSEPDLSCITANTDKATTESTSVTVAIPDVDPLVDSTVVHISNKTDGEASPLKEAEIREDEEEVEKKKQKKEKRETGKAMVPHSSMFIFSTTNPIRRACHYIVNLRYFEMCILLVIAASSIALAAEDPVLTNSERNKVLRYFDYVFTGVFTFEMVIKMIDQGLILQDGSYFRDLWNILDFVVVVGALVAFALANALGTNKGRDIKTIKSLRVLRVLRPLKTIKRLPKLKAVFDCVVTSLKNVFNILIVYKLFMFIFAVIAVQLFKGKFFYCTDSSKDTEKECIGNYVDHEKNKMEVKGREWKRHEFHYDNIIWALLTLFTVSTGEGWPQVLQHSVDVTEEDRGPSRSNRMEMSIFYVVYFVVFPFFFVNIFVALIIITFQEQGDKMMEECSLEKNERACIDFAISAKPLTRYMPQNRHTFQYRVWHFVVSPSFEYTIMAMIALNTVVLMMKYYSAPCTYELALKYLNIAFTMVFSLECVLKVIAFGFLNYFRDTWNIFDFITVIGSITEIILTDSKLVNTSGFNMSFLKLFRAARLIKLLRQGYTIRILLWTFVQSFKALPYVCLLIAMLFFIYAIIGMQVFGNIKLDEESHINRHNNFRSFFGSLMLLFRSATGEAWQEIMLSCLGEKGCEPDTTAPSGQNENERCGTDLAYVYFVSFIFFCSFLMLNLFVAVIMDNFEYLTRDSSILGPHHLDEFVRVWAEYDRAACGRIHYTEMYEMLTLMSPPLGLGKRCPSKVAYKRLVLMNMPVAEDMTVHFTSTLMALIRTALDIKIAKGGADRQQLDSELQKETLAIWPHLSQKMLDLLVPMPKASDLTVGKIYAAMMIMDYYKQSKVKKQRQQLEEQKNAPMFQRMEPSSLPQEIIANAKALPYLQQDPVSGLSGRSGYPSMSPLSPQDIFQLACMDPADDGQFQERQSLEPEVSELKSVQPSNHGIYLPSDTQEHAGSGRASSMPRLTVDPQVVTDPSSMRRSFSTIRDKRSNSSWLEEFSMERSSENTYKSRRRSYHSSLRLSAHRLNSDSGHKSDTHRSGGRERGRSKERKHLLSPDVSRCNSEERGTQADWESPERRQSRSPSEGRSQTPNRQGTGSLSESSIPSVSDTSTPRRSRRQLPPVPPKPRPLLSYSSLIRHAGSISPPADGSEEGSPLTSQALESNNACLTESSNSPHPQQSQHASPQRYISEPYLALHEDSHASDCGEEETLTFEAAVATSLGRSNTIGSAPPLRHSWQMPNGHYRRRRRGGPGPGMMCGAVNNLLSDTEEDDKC
# assay-remarks: Human Cav2.3 channel calcium-influx assay
# Type: cell-based
# experimental-parameters: Fluo8 fluorescence, HEK-293 T-Rex/Kir2.1/Cav2.3e cells, without pluronic acid, read-out: Cav2.3 (pIC50) (converted)
Express your answer in nM, writing the number without its unit.

// worked examples, IC50 included
molecule	IC50 / nM
COc1ccc([C@@H](N(C)S(=O)(=O)c2ccc3nccn3c2)C(F)(F)F)cc1	794
CCN([C@H](c1ccc(F)cc1)C(F)(F)F)S(=O)(=O)c1cnc2[nH]ccc2n1	562

Query: Param item = [2H]C([2H])([2H])N([C@H](c1ccc(Cl)cc1)C(F)(F)F)S(=O)(=O)c1cncc(C#N)c1 ; retrieve measured IC50.
Result: 28.2

Query: Param item = CCN([C@H](c1ccc(F)cc1)C(F)(F)F)S(=O)(=O)c1ccc2nc(C)c(Cl)n2n1 ; retrieve measured IC50.
Result: 3020

====

# tgt: Cav2.3 (Homo sapiens, UniProt Q15878)
# assay-remarks: Human Cav2.3 channel calcium-influx assay
# Assay type: cell-based
# experimental-parameters: Fluo8 fluorescence, HEK-293 T-Rex/Kir2.1/Cav2.3e cells, without pluronic acid, read-out: Cav2.3 (pIC50) (converted)
Form field: IC50 (one value per entry).
Express your answer in nM, writing the number without its unit.

compound	IC50 [nM]
CCN([C@H](c1ccc(F)cc1)C(F)(F)F)S(=O)(=O)c1cc2cc[nH]c2cn1	537
N#Cc1cncc(S(=O)(=O)N(CCF)C(c2ccc(F)cc2)C(F)(F)F)c1 (stereo not shown)	178

Query: // map CCN([C@@H](c1ccc(F)cc1)C(F)(F)F)S(=O)(=O)c1cccc(C)n1 to recorded IC50 (system: Cav2.3 (Homo sapiens, UniProt Q15878))
Result: 3800

Query: // map CCN([C@H](c1ccc(F)cc1)C(F)(F)F)S(=O)(=O)c1ccn2nncc2c1 to recorded IC50 (system: Cav2.3 (Homo sapiens, UniProt Q15878))
Result: 25.1

Query: // map CCN(C(c1ccc(F)cc1)C(F)(F)F)S(=O)(=O)CC1CCOCC1 (stereo not shown) to recorded IC50 (system: Cav2.3 (Homo sapiens, UniProt Q15878))
Result: 794

Query: // map CCN([C@H](c1ccc(F)cc1)C(F)(F)F)S(=O)(=O)c1ccc2nccn2c1 to recorded IC50 (system: Cav2.3 (Homo sapiens, UniProt Q15878))
Result: 17.4

Query: // map CN([C@H](c1ccc(F)cc1)C(F)(F)F)S(=O)(=O)c1cncc(F)c1 to recorded IC50 (system: Cav2.3 (Homo sapiens, UniProt Q15878))
Result: 145

====

Form field: IC50 (one value per entry).
# tgt: Cav2.3 (Homo sapiens, UniProt Q15878)
# assay-remarks: Human Cav2.3 channel calcium-influx assay
# Type: cell-based
# experimental-parameters: Fluo8 fluorescence, HEK-293 T-Rex/Kir2.1/Cav2.3e cells, without pluronic acid, read-out: Cav2.3 (pIC50) (converted)
Express your answer in nM, writing the number without its unit.

// worked examples, IC50 included
molecule	scale-unit	IC50
CCN([C@H](c1ccc(F)cc1)C(F)(F)F)S(=O)(=O)c1ccc2nc(C)cn2n1	nM	447
CN([C@H](c1ccc(Cl)cc1)C(F)(F)F)S(=O)(=O)c1ccc2nccn2c1	nM	178

Please look at the following molecule next.
Query: Param item = CCN(C(c1ccc(F)cc1)C(F)(F)F)S(=O)(=O)c1csc(C(=O)OC)n1 (stereo not drawn) ; retrieve measured IC50.
Result: 2000
